Test: probe aNOTCH2 binding on compound microarray – biochemical, small-molecule microarray, 635/667 nm fluorescence, primary screen (AID 1121);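 note: score merges feature fluorescence read at 667 nm with its signal to noise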
Conditions: higher = more signal
experimentalReadout: composite z-score
Would you mind answering with just the numeric figure?

molecule	composite z-score
O=C1C[C@@](C(=O)O)(c2ccc([N+](=O)[O-])cc2)[C@@H](c2ccc(CO)cc2I)N1C1CCCCC1	-0.0397
C=CCN1C(=O)[C@@]2(O[C@@H](CCO)[C@H]([Si](C)(C)c3ccc(OC)cc3)[C@H]2C)c2cc(NC(C)=O)ccc21	-0.044
CC(C)[C@H]1COC(=O)N1C(=O)[C@H]1[C@@H](c2ccccc2)N(c2ccccc2)O[C@@H]1C	-0.125
COc1ccc([Si](C)(C)[C@H]2[C@H](CCO)O[C@@]3(C(=O)N(Cc4ccccc4)c4ccc(N5C(=O)COc6ccccc65)cc43)[C@@H]2C)cc1	-0.0552
COc1ccc([Si](C)(C)[C@@H]2[C@@H](CCO)O[C@]3(C(=O)N(Cc4cccc(N5CCCCC5=O)c4)c4ccccc43)[C@H]2C)cc1	-0.123
CC(C)C(=C=CC[C@H](O)c1ccccc1OCCO)CCO	-0.045

Please list composite z-score recorded for the molecule `CCCC[C@H]1C[C@@H]1[C@@H]1N(P(=O)(c2ccccc2)c2ccccc2)[C@](CO)(c2ccccc2)CC12CC2`
0.281

Please list composite z-score recorded for the molecule O=P(NCC1(CC2(c3ccccc3)CO2)CC1)(c1ccccc1)c1ccccc1 (stereo unspecified)
-0.0451

Fill in reported composite z-score for this entry: `CCCNC(=O)[C@@]1(C)c2ccccc2C(=O)N(Cc2cc(C(F)(F)F)cc(C(F)(F)F)c2)[C@H]1c1ccc(CO)cc1`
-0.114

Using known records, supply composite z-score for `COC(=O)c1nc2oc1CC[C@@H](CO)NC(=O)N(C)Cc1cn(nn1)C[C@H](Cc1ccccc1)NC2=O`
-0.152

Hello, please tell me recorded composite z-score for this one: [N-]=[N+]=NCc1ccccc1C[C@]1(C(=O)NCC(O)CO)COC(c2ccc(OCCCO)cc2)=N1 (stereo partly specified)
0.446

Given the molecule `[N-]=[N+]=NCc1ccccc1[C@H]1OC(c2ccc(OCCCO)cc2)=N[C@@]1(Cc1ccccc1)C(=O)O` , write its reported composite z-score.
-0.106

Give the value of composite z-score reported for the following: CCCCN1CC=CC23O[C@@H]4C=CCCOC(=O)C4[C@H]2C(=O)N(CCCO)[C@@H]3C1=O (stereo partly specified)
-0.155

For the molecule `COC(=O)[C@@]1(Cc2ccc(F)cc2)[C@H]2c3cc(C(=O)N(C)C)n(CCCNc4ccc(C(F)(F)F)cc4Cl)c3C[C@H]2CN1C(=O)c1ccccc1` , report composite z-score.
0.116

# return recorded composite z-score for entry `COC(=O)[C@@]1(Cc2ccccc2)[C@H]2c3cc(C(=O)N(C)C)n(Cc4ccccc4)c3C[C@H]2CN1C(=O)c1ccccc1`
-0.0895

Retrieve composite z-score measured for `C=C[C@H](C)[C@H](O)c1ccc(OCCO)cc1` and print it.
-0.185

====

Experiment: probe aNOTCH2 binding on compound microarray – biochemical, small-molecule microarray, 635/667 nm fluorescence, primary screen (AID 1121);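 note: score merges feature fluorescence read at 667 nm with its signal to noise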
Conditions: higher = more signal
// label = rule met if composite z-score is not less than -0.05, otherwise rule not met

Use the examples below as a reference point.
compound	group
COCCOC(=O)N1C(=O)[C@@]2(c3cc(C#Cc4ccc(OC)cc4)ccc31)[C@H](c1ccc(OCCO)cc1)N1[C@H](c3ccccc3)[C@H](c3ccccc3)OC(=O)[C@H]1[C@@H]2C(=O)N1CCc2cc(OC)c(OC)cc2C1	rule not met
COc1ccc(C#Cc2ccc3c(c2)[C@]2(C(=O)N3)[C@H](C(=O)N3CCN(c4ncccn4)CC3)[C@H]3C(=O)O[C@H](c4ccccc4)[C@H](c4ccccc4)N3[C@@H]2c2ccc(O)cc2)cc1	rule met

Check the entry `Cc1cccc(/C=C/C=O)c1` : does composite z-score equal or exceed -0.05?
rule not met

Threshold query (composite z-score >= -0.05) on `COc1ccc(C(=O)Nc2cccc(CN3C(=O)[C@@]4(O[C@@H](CCn5cc([C@H](O)c6ccccc6)nn5)[C@H]([Si](C)(C)c5ccc(OC)cc5)[C@H]4C)c4ccccc43)c2)cc1`
rule not met

Is reported composite z-score greater than or equal to -0.05 here: `Cc1ccc([C@H]2C(C(=O)O)=C[C@@H](C(C)C)N2S(=O)(=O)c2ccc(C)cc2)cc1`
rule met

Form field: composite z-score at least -0.05? Entry: CC(C)C(CO)N1C(=O)[C@@H]2[C@H]3C(=O)OCC=C[C@H]3OC23C=CCN(c2ccc4ccccc4c2)C(=O)[C@@H]13 (stereo not given in full)
rule not met

Answer whether composite z-score of O=C1C2C=CC(C(O)c3cccc4ccccc34)N(n3cnnc3)C2C(=O)N1Cc1ccccc1 (stereo not given) is greater than or equal to -0.05.
rule met

Quick check: does `C=CC[C@]1(C(=O)O)N=C(c2ccc(OCCCO)cc2)O[C@H]1c1ccccc1CN=[N+]=[N-]` have composite z-score greater than or equal to -0.05?
rule not met

Hi, just wondering whether O=C1C2C=CC(C(O)CCc3ccccc3)N(Nc3ccccc3)C2C(=O)N1c1ccccc1 (stereo not given) shows composite z-score of -0.05 or higher.
rule met

Determine whether measured composite z-score meets or exceeds -0.05 for `O=C1O[C@@H](c2ccccc2)[C@@H](c2ccccc2)N2[C@@H](c3ccccc3OCCO)[C@]3(C(=O)Nc4ccc(C#CC5(O)CCCCCC5)cc43)[C@@H](C(=O)NC[C@H](O)c3ccccc3)[C@H]12`
rule met

Item `C=C(CCCC)/C(=C/C[C@@H](OC(=O)c1ccncc1)c1ccc(CO)o1)c1cc(C(=O)OC)ccc1OC` with composite z-score of -0.05 or above?
rule met

Is it the case that `O=C(N1CCCCC1)[C@]1(CCS(=O)(=O)c2ccccc2)N=C(c2ccc(OCCCO)cc2)O[C@@H]1c1ccccc1` has composite z-score reaching or exceeding -0.05?
rule met
